Biological target: LFA-1 binding to ICAM-1 (Homo sapiens, UniProt P05107+P20701)
Sequence (P20701 26-1170): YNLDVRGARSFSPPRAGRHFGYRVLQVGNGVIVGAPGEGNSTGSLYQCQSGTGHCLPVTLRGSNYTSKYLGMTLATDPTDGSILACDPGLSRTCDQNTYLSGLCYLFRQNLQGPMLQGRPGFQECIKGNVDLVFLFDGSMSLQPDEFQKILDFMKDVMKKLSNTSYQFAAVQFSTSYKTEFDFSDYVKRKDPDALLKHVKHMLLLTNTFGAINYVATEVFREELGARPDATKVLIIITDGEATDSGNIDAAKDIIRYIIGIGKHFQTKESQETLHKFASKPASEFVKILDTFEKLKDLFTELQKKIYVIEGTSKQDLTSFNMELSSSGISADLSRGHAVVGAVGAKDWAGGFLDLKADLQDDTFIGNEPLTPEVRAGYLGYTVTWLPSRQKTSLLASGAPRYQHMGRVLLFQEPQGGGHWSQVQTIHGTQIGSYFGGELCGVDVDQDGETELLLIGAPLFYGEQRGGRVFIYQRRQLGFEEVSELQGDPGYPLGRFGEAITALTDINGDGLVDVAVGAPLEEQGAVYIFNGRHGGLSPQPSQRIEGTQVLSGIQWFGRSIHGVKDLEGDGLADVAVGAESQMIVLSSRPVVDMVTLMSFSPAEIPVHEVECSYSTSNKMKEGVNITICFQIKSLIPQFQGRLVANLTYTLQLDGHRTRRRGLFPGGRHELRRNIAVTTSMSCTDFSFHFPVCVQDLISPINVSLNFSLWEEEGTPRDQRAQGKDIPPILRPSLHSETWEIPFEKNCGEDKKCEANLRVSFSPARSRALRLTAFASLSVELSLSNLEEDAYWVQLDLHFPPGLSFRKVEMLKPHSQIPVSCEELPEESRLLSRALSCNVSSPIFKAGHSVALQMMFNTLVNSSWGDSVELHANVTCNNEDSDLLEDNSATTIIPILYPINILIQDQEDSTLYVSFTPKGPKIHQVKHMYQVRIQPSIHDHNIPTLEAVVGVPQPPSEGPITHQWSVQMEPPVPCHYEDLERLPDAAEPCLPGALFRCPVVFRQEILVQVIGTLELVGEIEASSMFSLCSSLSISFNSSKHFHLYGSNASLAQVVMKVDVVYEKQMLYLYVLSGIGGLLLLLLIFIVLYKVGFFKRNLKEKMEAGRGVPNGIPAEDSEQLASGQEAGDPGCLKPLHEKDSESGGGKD
Sequence (P05107 23-769): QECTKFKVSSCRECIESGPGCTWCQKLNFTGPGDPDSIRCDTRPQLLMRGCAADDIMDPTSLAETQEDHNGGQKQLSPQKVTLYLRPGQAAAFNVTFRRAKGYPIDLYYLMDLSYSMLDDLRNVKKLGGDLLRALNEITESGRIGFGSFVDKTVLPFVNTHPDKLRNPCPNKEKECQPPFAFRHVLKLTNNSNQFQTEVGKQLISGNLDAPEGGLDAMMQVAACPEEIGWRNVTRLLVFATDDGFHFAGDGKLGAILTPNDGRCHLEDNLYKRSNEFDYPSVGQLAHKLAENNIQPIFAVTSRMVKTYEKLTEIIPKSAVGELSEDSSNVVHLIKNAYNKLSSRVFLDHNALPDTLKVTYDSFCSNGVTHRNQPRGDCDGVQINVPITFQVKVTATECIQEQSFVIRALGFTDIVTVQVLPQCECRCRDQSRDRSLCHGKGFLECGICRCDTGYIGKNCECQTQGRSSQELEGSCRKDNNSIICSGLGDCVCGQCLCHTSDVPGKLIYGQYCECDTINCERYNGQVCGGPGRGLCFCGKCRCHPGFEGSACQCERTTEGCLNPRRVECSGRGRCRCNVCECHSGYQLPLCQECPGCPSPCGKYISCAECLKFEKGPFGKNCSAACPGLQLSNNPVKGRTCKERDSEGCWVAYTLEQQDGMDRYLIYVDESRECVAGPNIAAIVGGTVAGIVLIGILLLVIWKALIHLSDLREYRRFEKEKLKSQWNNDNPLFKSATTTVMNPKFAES
Experiment: Inhibition of LFA-1 binding to ICAM-1 (LFA-1/Biotin-sICAM-1 AlphaScreen molecular assay)
Conditions: highest compound concentration 1 μM in 1% DMSO, 37° C., 90 minutes
What IC50 was measured for each of the following?
Number in nM, nothing else.

Ask: Dear colleague, I am looking for the recorded IC50 of the following molecule: C[C@@]1(Cc2ccc(C#N)cc2)C(=O)N(c2cc(Cl)c(F)c(Cl)c2)c2ncc(C(=O)NC3(C(=O)NC4(c5ccc(C(N)=O)cn5)CC4)CC3)n21 [compound 164]
Reply: 0.82

Ask: Now this one: C[C@@]1(Cc2ccc(C#N)cc2)C(=O)N(c2cc(Cl)cc(Cl)c2)c2ncc(C(=O)NC3(C(=O)NC4(c5cc(C(=O)N6CCC[C@H]6C(N)=O)ccn5)CC4)CC3)n21 [compound 122]
Reply: 1.7

Ask: Now this one: CN1CCN(C(=O)c2ccnc(C3(NC(=O)C4(NC(=O)c5cnc6n5[C@](C)(Cc5ccc(C#N)cc5)C(=O)N6c5cc(Cl)cc(Cl)c5)CC4)CC3)c2)CC1 [compound 156]
Reply: 1.1

Ask: Now this one: CC(NC(=O)c1cccc(C2(NC(=O)C3(NC(=O)c4cnc5n4[C@](C)(Cc4ccc(C#N)cc4)C(=O)N5c4cc(Cl)cc(Cl)c4)CC3)CC2)n1)c1ccccn1 (some centres unmarked) [compound 12]
Reply: 8.5

Ask: Now this one: CN(CCO)C(=O)c1cccc(C2(NC(=O)C3(NC(=O)c4cnc5n4[C@](C)(Cc4ccc(C#N)cc4)C(=O)N5c4cc(Cl)cc(Cl)c4)CC3)CC2)n1 [compound 20]
Reply: 1
